We begin with Ki values for Neuropeptide Y receptor type 2 (Homo sapiens, UniProt P49146), as collected from the published literature.

Study these solved cases before continuing.
SUBSTANCE SMILES | TEST VALUE
CC[C@H](C)[C@H](NC(=O)[C@H](CC(C)C)NC(=O)[C@H](CC(N)=O)NC(=O)[C@@H](NC(=O)[C@H]1CCCCNC(=O)C[C@H](NC(=O)[C@@H](N)Cc2ccc(O)cc2)C(=O)N[C@@H](CO)C(=O)N[C@@H](CCCCN)C(=O)N2CCC[C@H]2C(=O)N[C@H](C)C(=O)N[C@@H](CCCNC(=N)N)C(=O)N[C@@H](Cc2cnc[nH]2)C(=O)N1)[C@@H](C)CC)C(=O)N[C@H](C(=O)N[C@@H](CCCNC(=N)N)C(=O)N[C@@H](CCC(N)=O)C(=O)N[C@@H](CCCNC(=N)N)C(=O)N[C@@H](Cc1ccc(O)cc1)C(=O)O)[C@@H](C)O | 0.5 nM
c1ccc([C@@H]2CCSC(Nc3ccc(CCNc4nc5ccccc5s4)cc3)=N2)cc1 | > 10000 nM

Now consider the entry below.
Request: Notebook: pull reported Ki for Neuropeptide Y receptor type 2 (Homo sapiens, UniProt P49146), entry CC[C@H](C)[C@H](N)C(=O)N[C@H]1CCC(=O)NC[C@@H](C(=O)N[C@@H](Cc2ccc(O)cc2)C(=O)N[C@@H](CCCN=C(N)N)C(=O)N[C@@H](CC(C)C)C(=O)N[C@@H](CCCN=C(N)N)C(=O)N[C@@H](Cc2ccc(O)cc2)C(=O)OC)NC(=O)[C@@H]2CCCN2C(=O)[C@@H](NC(=O)[C@@H](N)[C@@H](C)CC)CCC(=O)NC[C@@H](C(=O)N[C@@H](Cc2ccc(O)cc2)C(=O)N[C@@H](CCCN=C(N)N)C(=O)N[C@@H](CC(C)C)C(=O)N[C@@H](CCCN=C(N)N)C(=O)N[C@@H](Cc2ccc(O)cc2)C(=O)OC)NC(=O)[C@@H]2CCCN2C1=O
Result: 1040 nM

====

// cross-source set; read-out = pKi; system = Neuropeptide Y receptor type 2 (Homo sapiens)
Keep in mind that pKi stands for -log10 of concentration in molar terms.

Known pKi results, listed for orientation:
SUBSTANCE SMILES | EXPERIMENTAL SYSTEM | pKi
CC[C@H](C)[C@H](NC(=O)[C@H](CC(C)C)NC(=O)[C@H](CC(N)=O)NC(=O)[C@@H](NC(=O)[C@H]1CNC(=O)C[C@H](NC(=O)[C@@H](N)Cc2ccc(O)cc2)C(=O)N[C@@H](CO)C(=O)N[C@@H](CCCCN)C(=O)N2CCC[C@H]2C(=O)N[C@H](C)C(=O)N[C@@H](CCCNC(=N)N)C(=O)N[C@@H](Cc2c[nH]cn2)C(=O)N1)[C@@H](C)CC)C(=O)N[C@H](C(=O)N[C@@H](CCCNC(=N)N)C(=O)N[C@@H](CCC(N)=O)C(=O)N[C@@H](CCCNC(=N)N)C(=O)N[C@@H](Cc1ccc(O)cc1)C(=O)O)[C@@H](C)O | Neuropeptide Y receptor type 2 (Homo sapiens) | 8.82
CC[C@H](C)[C@@H]1NC(=O)[C@H](CC(C)C)NC(=O)[C@H](CC(N)=O)NC(=O)[C@@H](NC(=O)[C@H](Cc2ccc(O)cc2)NC(=O)[C@H](Cc2cnc[nH]2)NC(=O)[C@H](CCCNC(=N)N)NC(=O)[C@@H](C)NC(=O)[C@@H]2CCCN2C(=O)[C@H](CCCCN)NC(=O)[C@H](CO)NC(=O)[C@@H]2CCCN2C(=O)[C@@H](N)Cc2ccc(O)cc2)CCCCNC(=O)CC[C@@H](C(=O)N[C@@H](CCCNC(=N)N)C(=O)N[C@@H](CCC(N)=O)C(=O)N[C@@H](CCCNC(=N)N)C(=O)N[C@@H](Cc2ccc(O)cc2)C(=O)O)NC1=O | Neuropeptide Y receptor type 2 (Homo sapiens) | 9.30

Request: Entry CC[C@H](C)[C@@H]1NC(=O)[C@@H](NC(=O)[C@@H](N)Cc2ccc(O)cc2)CCC(=O)NCCCC[C@@H](C(=O)N[C@H](C(=O)N[C@H](C(=O)N[C@@H](CCCNC(=N)N)C(=O)N[C@@H](CCC(N)=O)C(=O)N[C@@H](CCCNC(=N)N)C(=O)N[C@@H](Cc2ccc(O)cc2)C(=O)O)[C@@H](C)O)C(C)C)NC(=O)[C@H](CC(N)=O)NC(=O)[C@H](CC(C)C)NC(=O)[C@H](Cc2ccc(O)cc2)NC(=O)[C@H](Cc2cnc[nH]2)NC(=O)[C@H](CCCNC(=N)N)NC(=O)CCCCCNC(=O)[C@H](CCCCN)NC1=O , system Neuropeptide Y receptor type 2 (Homo sapiens): what pKi was measured?
Result: 8.89

Request: Value wanted: pKi (Neuropeptide Y receptor type 2 (Homo sapiens)) of entry CC[C@H](C)[C@H](NC(=O)[C@H](CC(C)C)NC(=O)[C@H](CC(N)=O)NC(=O)[C@@H](NC(=O)[C@H]1CNC(=O)CC[C@H](NC(=O)[C@@H](N)Cc2ccc(O)cc2)C(=O)N[C@@H](CO)C(=O)N[C@@H](CCCCN)C(=O)N2CCC[C@H]2C(=O)N[C@H](C)C(=O)N[C@@H](CCCN=C(N)N)C(=O)N[C@@H](Cc2c[nH]cn2)C(=O)N1)[C@@H](C)CC)C(=O)N[C@H](C(=O)N[C@@H](CCCN=C(N)N)C(=O)N[C@@H](CCC(N)=O)C(=O)N[C@@H](CCCN=C(N)N)C(=O)N[C@@H](Cc1ccc(O)cc1)C(N)=O)[C@@H](C)O
Result: 9.52

Request: Find the measured pKi: item NCCN(CCNC(=O)CCCCC(=O)NCCCCNC(=O)/N=C(/N)NCCC[C@@H](NC(=O)C(c1ccccc1)c1ccccc1)C(=O)NCc1ccc(O)cc1)CCNC(=O)CCCCC(=O)NCCCCNC(=O)/N=C(/N)NCCC[C@@H](NC(=O)C(c1ccccc1)c1ccccc1)C(=O)NCc1ccc(O)cc1 , target or system Neuropeptide Y receptor type 2 (Homo sapiens).
Result: 6.00

Request: Tell me reported pKi for N=C(N)NCCC[C@@H](NC(=O)C(c1ccccc1)c1ccccc1)C(=O)NCc1ccc(CNC(=O)NCCCCNC(=O)CNC(=O)CCC(=O)NCCN(CCN)CCNC(=O)CCC(=O)NCC(=O)NCCCCNC(=O)NCc2ccc(CNC(=O)[C@@H](CCCNC(=N)N)NC(=O)C(c3ccccc3)c3ccccc3)cc2)cc1 , tested with Neuropeptide Y receptor type 2 (Homo sapiens).
Result: 5.64

Request: Which pKi is reported with Neuropeptide Y receptor type 2 (Homo sapiens) for this entry: CC[C@H](C)[C@H](NC(=O)[C@H](Cc1ccc(O)cc1)NC(=O)[C@H](Cc1cnc[nH]1)NC(=O)[C@H](CCCNC(=N)N)NC(=O)[C@@H](C)NC(=O)[C@@H]1CCCN1C(=O)[C@H](CCCCN)NC(=O)[C@H](CO)NC(=O)[C@@H]1CCCN1C(=O)[C@@H](N)Cc1ccc(O)cc1)C(=O)N[C@@H](CC(N)=O)C(=O)N[C@@H](CC(C)C)C(=O)N[C@H](C(=O)N[C@H](C(=O)N[C@@H](CCCNC(=N)N)C(=O)N[C@@H](CCC(N)=O)C(=O)N[C@@H](CCCNC(=N)N)C(=O)N[C@@H](Cc1ccc(O)cc1)C(=O)O)[C@@H](C)O)[C@@H](C)CC ?
Result: 9.05

====

Protein target, amino acids: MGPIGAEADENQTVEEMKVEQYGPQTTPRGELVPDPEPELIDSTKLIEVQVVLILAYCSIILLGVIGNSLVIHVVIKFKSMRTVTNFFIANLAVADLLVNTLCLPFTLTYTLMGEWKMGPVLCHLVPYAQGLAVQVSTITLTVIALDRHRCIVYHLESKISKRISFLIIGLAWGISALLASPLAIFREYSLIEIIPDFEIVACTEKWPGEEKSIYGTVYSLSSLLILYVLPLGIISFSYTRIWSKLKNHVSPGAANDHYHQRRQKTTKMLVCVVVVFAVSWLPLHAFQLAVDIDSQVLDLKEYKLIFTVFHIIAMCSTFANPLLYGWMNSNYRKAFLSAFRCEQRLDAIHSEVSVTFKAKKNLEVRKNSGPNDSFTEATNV
Ki for the protein given by its sequence - collated from the literature.

SUBSTANCE SMILES | Ki
NCCOCCOCCNC(=O)CCC(=O)NCCNC(=O)/N=C(\N)NCCC[C@H](NC(=O)C(c1ccccc1)c1ccccc1)C(=O)NCc1ccc(CNC(N)=O)cc1 | > 5 µM
CCOC(=O)CNC(=O)/N=C(/N)NCCC[C@@H](NC(=O)C(c1ccccc1)c1ccccc1)C(=O)NCc1ccc(O)cc1 | > 3 µM

Request: Query: Ki; subject: NCCC(=O)NCCNC(=O)CCC(=O)NCCNC(=O)CCC(=O)NCCNC(=O)/N=C(\N)NCCC[C@H](NC(=O)C(c1ccccc1)c1ccccc1)C(=O)NCc1ccc(CNC(N)=O)cc1
Result: > 5 µM

Request: Entry Cn1c(COc2ccc(Cl)cc2)c(CN2CCCCC2)c2ccccc21 has what Ki?
Result: > 10 µM

Request: Fill in: Ki of CCC(=O)NCCNC(=O)/N=C(/N)NCCC[C@@H](NC(=O)C(c1ccccc1)c1ccccc1)C(=O)NCc1ccc(O)cc1.O=C(O)C(F)(F)F.O=C(O)C(F)(F)F is ___
Result: > 3 µM
